src = PubChem BioAssay (NCI)

Here's a batch of compounds along with measured GI50 for MDA-MB-435 melanoma.

- Structure Notation: "CNc1ncc2cc(-c3cc(NC(=O)NCCC(C)(C)C)c(F)cc3C)c(C)nc2n1"
  GI50: "0.0336 µM"
- Structure Notation: "CCN(CCO)CCCOc1ccc2c(Nc3cc(CC(=O)Nc4cccc(F)c4)[nH]n3)ncnc2c1"
  GI50: "13.4 µM"
- Structure Notation: "CS(=O)(=O)N1CCc2c(-c3cnc(N)nc3)nc(N3CCOCC3)nc21"
  GI50: "1.49 µM"
- Structure Notation: "CN1CCN(c2ccc(Nc3ncc4cc5n(c4n3)C3(CCCCC3)CNC5=O)nc2)CC1"
  GI50: "4.34 µM"
- Structure Notation: "N[C@@H](CSSC[C@H](N)C(=O)N1CCn2cc(-c3ccccc3)nc2[C@@H]1CC1CCCCC1)C(=O)N1CCn2cc(-c3ccccc3)nc2[C@@H]1CC1CCCCC1"
  GI50: "0.677 µM"

----------
Tested on: NCI-H23 lung
Experiment: NCI tumour cell line growth inhibition, 384-well format
Observation Type: GI50

- Molecule: "CS(=O)(=O)N1CCc2c(-c3cnc(N)nc3)nc(N3CCOCC3)nc21"
  Experimental System: "NCI-H23 lung"
  Assay Result: "0.826 µM"
- Molecule: "CNCCN(C)Cc1cn[nH]c1-c1ccc(OC2CC(OCCC3CCOCC3)C2)cc1 (centres undefined)"
  Experimental System: "NCI-H23 lung"
  Assay Result: "40 µM"
- Molecule: "CN1CCN(c2ccc(Nc3ncc4cc5n(c4n3)C3(CCCCC3)CNC5=O)nc2)CC1"
  Experimental System: "NCI-H23 lung"
  Assay Result: "1.81 µM"
- Molecule: "CCN(CCO)CCCOc1ccc2c(Nc3cc(CC(=O)Nc4cccc(F)c4)[nH]n3)ncnc2c1"
  Experimental System: "NCI-H23 lung"
  Assay Result: "11.8 µM"

----------
Test system: KM12 colon
Assay: NCI tumour cell line growth inhibition, 384-well format; in the data active means GI50 below about 0.43 µM; inactive means the rest
Possible outcomes: yes = active, no = inactive

- Structure Notation: "COC(=O)c1ccc2c(C(=Nc3ccc(N(C)C(=O)CN4CCN(C)CC4)cc3)c3ccccc3)c(O)[nH]c2c1"
  Label Class: "yes"
- Structure Notation: "CNc1ncc2cc(-c3cc(NC(=O)NCCC(C)(C)C)c(F)cc3C)c(C)nc2n1"
  Label Class: "no"
- Structure Notation: "CS(=O)(=O)N1CCc2c(-c3cnc(N)nc3)nc(N3CCOCC3)nc21"
  Label Class: "no"
- Structure Notation: "CN1CCN(c2ccc(Nc3ncc4cc5n(c4n3)C3(CCCCC3)CNC5=O)nc2)CC1"
  Label Class: "no"
- Structure Notation: "CCN(CCO)CCCOc1ccc2c(Nc3cc(CC(=O)Nc4cccc(F)c4)[nH]n3)ncnc2c1"
  Label Class: "no"

----------
System: RPMI-8226 leukemia
Test: NCI tumour cell line growth inhibition, 384-well format
molecules and their reported GI50
Observation Type: GI50

- Molecule: "CCN(CCO)CCCOc1ccc2c(Nc3cc(CC(=O)Nc4cccc(F)c4)[nH]n3)ncnc2c1"
  Observation Type: "GI50"
  Assay Result: "7.83 µM"
- Molecule: "CNCCN(C)Cc1cn[nH]c1-c1ccc(OC2CC(OCCC3CCOCC3)C2)cc1 (centres undefined)"
  Observation Type: "GI50"
  Assay Result: "24.5 µM"
- Molecule: "CS(=O)(=O)N1CCc2c(-c3cnc(N)nc3)nc(N3CCOCC3)nc21"
  Observation Type: "GI50"
  Assay Result: "0.461 µM"
- Molecule: "COC(=O)c1ccc2c(C(=Nc3ccc(N(C)C(=O)CN4CCN(C)CC4)cc3)c3ccccc3)c(O)[nH]c2c1"
  Observation Type: "GI50"
  Assay Result: "1.34 µM"

----------
Tested on: NCI-H322M lung
Test: NCI tumour cell line growth inhibition, 384-well format
Collected TGI values appear next to each entry.

- Structure Notation: "CS(=O)(=O)N1CCc2c(-c3cnc(N)nc3)nc(N3CCOCC3)nc21"
  Experimental System: "NCI-H322M lung"
  TGI / µM: 9.38
- Structure Notation: "COC(=O)c1ccc2c(C(=Nc3ccc(N(C)C(=O)CN4CCN(C)CC4)cc3)c3ccccc3)c(O)[nH]c2c1"
  Experimental System: "NCI-H322M lung"
  TGI / µM: 3.36
- Structure Notation: "CNc1ncc2cc(-c3cc(NC(=O)NCCC(C)(C)C)c(F)cc3C)c(C)nc2n1"
  Experimental System: "NCI-H322M lung"
  TGI / µM: 12.9
- Structure Notation: "CCN(CCO)CCCOc1ccc2c(Nc3cc(CC(=O)Nc4cccc(F)c4)[nH]n3)ncnc2c1"
  Experimental System: "NCI-H322M lung"
  TGI / µM: 38.5

----------
Test system: DU-145 prostate
Experiment: NCI tumour cell line growth inhibition, 384-well format
Reported TGI values for a set of molecules

- Molecule: "CN1CCN(c2ccc(Nc3ncc4cc5n(c4n3)C3(CCCCC3)CNC5=O)nc2)CC1"
  TGI: "9.41 µM"
- Molecule: "COC(=O)c1ccc2c(C(=Nc3ccc(N(C)C(=O)CN4CCN(C)CC4)cc3)c3ccccc3)c(O)[nH]c2c1"
  TGI: "3.34 µM"
- Molecule: "N[C@@H](CSSC[C@H](N)C(=O)N1CCn2cc(-c3ccccc3)nc2[C@@H]1CC1CCCCC1)C(=O)N1CCn2cc(-c3ccccc3)nc2[C@@H]1CC1CCCCC1"
  TGI: "6.34 µM"
- Molecule: "CNCCN(C)Cc1cn[nH]c1-c1ccc(OC2CC(OCCC3CCOCC3)C2)cc1 (centres undefined)"
  TGI: "> 100 µM"

----------
Test system: MALME-3M melanoma
Test: NCI tumour cell line growth inhibition, 384-well format
Item-by-item account of TGI
Observation Type: TGI (µM)

- Compound: "CCN(CCO)CCCOc1ccc2c(Nc3cc(CC(=O)Nc4cccc(F)c4)[nH]n3)ncnc2c1"
  Assay Result: 23.4
- Compound: "CS(=O)(=O)N1CCc2c(-c3cnc(N)nc3)nc(N3CCOCC3)nc21"
  Assay Result: 2.18
- Compound: "N[C@@H](CSSC[C@H](N)C(=O)N1CCn2cc(-c3ccccc3)nc2[C@@H]1CC1CCCCC1)C(=O)N1CCn2cc(-c3ccccc3)nc2[C@@H]1CC1CCCCC1"
  Assay Result: 2.36
- Compound: "CNCCN(C)Cc1cn[nH]c1-c1ccc(OC2CC(OCCC3CCOCC3)C2)cc1 (centres undefined)"
  Assay Result: 56.2

----------
Items are presented alongside their recorded GI50.
Test system: HT29 colon
Experiment: NCI tumour cell line growth inhibition, 384-well format
Observation Type: GI50

- Compound: "CNCCN(C)Cc1cn[nH]c1-c1ccc(OC2CC(OCCC3CCOCC3)C2)cc1 (centres undefined)"
  Experimental System: "HT29 colon"
  Assay Result: "24600 nM"
- Compound: "CN1CCN(c2ccc(Nc3ncc4cc5n(c4n3)C3(CCCCC3)CNC5=O)nc2)CC1"
  Experimental System: "HT29 colon"
  Assay Result: "1460 nM"
- Compound: "COC(=O)c1ccc2c(C(=Nc3ccc(N(C)C(=O)CN4CCN(C)CC4)cc3)c3ccccc3)c(O)[nH]c2c1"
  Experimental System: "HT29 colon"
  Assay Result: "1230 nM"
- Compound: "CS(=O)(=O)N1CCc2c(-c3cnc(N)nc3)nc(N3CCOCC3)nc21"
  Experimental System: "HT29 colon"
  Assay Result: "334 nM"

----------
Test system: TK-10 renal
Assay: NCI tumour cell line growth inhibition, 384-well format; in the data active = GI50 below about 0.43 µM; inactive = the rest
Labels: t for active, f for inactive

- Structure Notation: "N[C@@H](CSSC[C@H](N)C(=O)N1CCn2cc(-c3ccccc3)nc2[C@@H]1CC1CCCCC1)C(=O)N1CCn2cc(-c3ccccc3)nc2[C@@H]1CC1CCCCC1"
  Label Class: "f"
- Structure Notation: "CCN(CCO)CCCOc1ccc2c(Nc3cc(CC(=O)Nc4cccc(F)c4)[nH]n3)ncnc2c1"
  Label Class: "f"
- Structure Notation: "CS(=O)(=O)N1CCc2c(-c3cnc(N)nc3)nc(N3CCOCC3)nc21"
  Label Class: "t"
- Structure Notation: "CNc1ncc2cc(-c3cc(NC(=O)NCCC(C)(C)C)c(F)cc3C)c(C)nc2n1"
  Label Class: "f"

----------
Test system: HL-60(TB) leukemia
Assay: NCI tumour cell line growth inhibition, 384-well format; in the data active = GI50 below about 0.43 µM; inactive = the rest
Outcome codes: YES = active, NO = inactive

- Structure Notation: "CNc1ncc2cc(-c3cc(NC(=O)NCCC(C)(C)C)c(F)cc3C)c(C)nc2n1"
  Label Class: "YES"
- Structure Notation: "CS(=O)(=O)N1CCc2c(-c3cnc(N)nc3)nc(N3CCOCC3)nc21"
  Label Class: "YES"
- Structure Notation: "CN1CCN(c2ccc(Nc3ncc4cc5n(c4n3)C3(CCCCC3)CNC5=O)nc2)CC1"
  Label Class: "YES"
- Structure Notation: "COC(=O)c1ccc2c(C(=Nc3ccc(N(C)C(=O)CN4CCN(C)CC4)cc3)c3ccccc3)c(O)[nH]c2c1"
  Label Class: "NO"
